Listing of entries alongside the reported Caco2 Bidirectional (ABBA) Efflux Ratio.
System: Caco-2 cell
Assay: Caco-2 cell permeability
Format: in vitro ADME
Settings: bidirectional (ABBA)
measurementName: Caco2 Bidirectional (ABBA) Efflux Ratio

molecule	numericValue
N#C[C@@H]1CSCN1C(=O)CNC(=O)c1ccnc2ccc(N3CCOC4(CCOCC4)C3)cc12 [Example 99]	46
CC1(C)COC12CN(c1ccc3nccc(C(=O)NCC(=O)N4CSC[C@H]4C#N)c3c1)C2 [Example 18]	34
N#C[C@@H]1CSCN1C(=O)CNC(=O)c1ccnc2ccc(N3CC4(COC4)C3)cc12 [Example 166]	24
N#C[C@@H]1CSCN1C(=O)CNC(=O)c1ccnc2ccc(N3CC4(CC(F)C4)C3)cc12 [Example 155]	6.5

* * *

Catalogue of molecules with associated Caco2 Bidirectional (ABBA) B to A Papp
System: Caco-2 cell
Assay: Caco-2 cell permeability
Type: in vitro ADME
Conditions: bidirectional (ABBA), B to A; n = 1 or average of n = 2-4

smilesNotation	targetOfAssay	Caco2 Bidirectional (ABBA) B to A Papp
N#C[C@@H]1CSCN1C(=O)CNC(=O)c1ccnc2ccc(N3CCOC4(CCOCC4)C3)cc12	Caco-2 cell	21 1E−6 · cm/s
CC1(C)COC12CN(c1ccc3nccc(C(=O)NCC(=O)N4CSC[C@H]4C#N)c3c1)C2	Caco-2 cell	31 1E−6 · cm/s
N#C[C@@H]1CSCN1C(=O)CNC(=O)c1ccnc2ccc(N3CC4(COC4)C3)cc12	Caco-2 cell	13 1E−6 · cm/s
N#C[C@@H]1CSCN1C(=O)CNC(=O)c1ccnc2ccc(N3CC4(CC(F)C4)C3)cc12	Caco-2 cell	27 1E−6 · cm/s

* * *

Experiment: Caco-2 cell permeability
Type: in vitro ADME
Details: human, Caco-2, AB intrinsic; n = 1 or average of n = 2-4; read-out: Caco2 AB Intrinsic Papp
Recorded measurements of Papp A→B, one per entry
measurementName: Papp A→B

compound	measurementName	result
CC1(CS(C)(=O)=O)CN(c2ccc3nccc(C(=O)NCC(=O)N4CSC[C@H]4C#N)c3c2)C1	Papp A→B	2.8 nm/s
N#C[C@@H]1CSCN1C(=O)CNC(=O)c1ccnc2ccc(N3CC4(COC4)C3)cc12	Papp A→B	20 nm/s
N#C[C@@H]1CSCN1C(=O)CNC(=O)c1ccnc2ccc(N3C4CCC3COC4)cc12	Papp A→B	86 nm/s
COCC1(C)CN(c2ccc3nccc(C(=O)NCC(=O)N4CSC[C@H]4C#N)c3c2)C1	Papp A→B	260 nm/s
N#C[C@@H]1CSCN1C(=O)CNC(=O)c1ccnc2ccc(N3CC(O)C(F)(F)C3)cc12 (mixture of isomers)	Papp A→B	12 nm/s
COC1CCCN(c2ccc3nccc(C(=O)NCC(=O)N4CSC[C@H]4C#N)c3c2)C1 (mixture of isomers)	Papp A→B	160 nm/s
N#C[C@@H]1CSCN1C(=O)CNC(=O)c1ccnc2ccc(N3CC(CF)C3)cc12	Papp A→B	200 nm/s
CC1CCN(c2ccc3nccc(C(=O)NCC(=O)N4CSC[C@H]4C#N)c3c2)C1=O (single isomer, unassigned)	Papp A→B	48 nm/s

* * *

Test system: Rat Hepatocytes (rHep)
Experiment: Metabolic stability in rat hepatocytes (rHep)
Type: in vitro ADME
Settings: n = 1 or geometric mean of n = 2-3

molecule	readoutUnits	inequalitySign	rHep CLint
CC1CCN(c2ccc3nccc(C(=O)NCC(=O)N4CSC[C@H]4C#N)c3c2)C1=O (single isomer, unassigned) [Example 202]	μL/min/1E6	<	1
CC1(F)CCN(c2ccc3nccc(C(=O)NCC(=O)N4CSC[C@H]4C#N)c3c2)C1 (mixture of isomers) [Example 198]	μL/min/1E6	=	22
N#C[C@@H]1CSCN1C(=O)CNC(=O)c1ccnc2ccc(N3CCOCC3C(F)(F)F)cc12 (single isomer, unassigned) [Example 84]	μL/min/1E6	=	26
CC1CCN(c2ccc3nccc(C(=O)NCC(=O)N4CSC[C@H]4C#N)c3c2)C1=O (single isomer, unassigned) [Example 201]	μL/min/1E6	<	1
N#C[C@@H]1CSCN1C(=O)CNC(=O)c1ccnc2ccc(N3CCOCC3C(F)(F)F)cc12 (single isomer, unassigned) [Example 85]	μL/min/1E6	=	35
CC1CCCN(c2ccc3nccc(C(=O)NCC(=O)N4CSC[C@H]4C#N)c3c2)C1=O (single isomer, unassigned) [Example 204]	μL/min/1E6	=	1.8
CC1CC(F)(F)CCN1c1ccc2nccc(C(=O)NCC(=O)N3CSC[C@H]3C#N)c2c1 (mixture of isomers) [Example 44]	μL/min/1E6	=	160

* * *

Assay: Kinetic solubility
Type: physicochemical
Conditions: kinetic from dmso stock
Is solubility at least 90 µM? Then criterion met. If not, criterion not met.

molecule	answerLabel
N#C[C@@H]1CSCN1C(=O)CNC(=O)c1ccnc2ccc(N3CCOCC3C(F)(F)F)cc12 (single isomer, unassigned) [Example 85]	criterion met
N#C[C@@H]1CSCN1C(=O)CNC(=O)c1ccnc2ccc(N3C[C@@H](F)[C@H](F)C3)cc12 (single isomer, unassigned) [Example 214]	criterion met
COC1(C)CCN(c2ccc3nccc(C(=O)NCC(=O)N4CSC[C@H]4C#N)c3c2)CC1 [Example 42]	criterion met
N#C[C@@H]1CSCN1C(=O)CNC(=O)c1ccnc2ccc(N3CC(O)C(F)(F)C3)cc12 (mixture of isomers) [Example 224]	criterion not met
N#C[C@@H]1CSCN1C(=O)CNC(=O)c1ccnc2ccc(-c3ccnn3C3CCCCO3)cc12 (mixture of isomers) [Example 176]	criterion met

* * *

System: Rat Hepatocytes (rHep)
Test: Metabolic stability in rat hepatocytes (rHep)
Type: in vitro ADME
Conditions: n = 1 or geometric mean of n = 2-3
Note to self: values exactly at 10 μL/min/1E6 are Yes. So rHep CLint at or above 10 μL/min/1E6 is Yes, below is No.

compound	targetOfAssay	answerLabel
N#C[C@@H]1CSCN1C(=O)CNC(=O)c1ccnc2ccc(N3CC(O)C(F)(F)C3)cc12 (mixture of isomers) [Example 224]	Rat Hepatocytes (rHep)	No
COC1CCCN(c2ccc3nccc(C(=O)NCC(=O)N4CSC[C@H]4C#N)c3c2)C1 (mixture of isomers) [Example 41]	Rat Hepatocytes (rHep)	Yes
N#C[C@@H]1CSCN1C(=O)CNC(=O)c1ccnc2ccc(N3CCCC3C3CC3)cc12 (single isomer, unassigned) [Example 200]	Rat Hepatocytes (rHep)	Yes
N#C[C@@H]1CSCN1C(=O)CNC(=O)c1ccnc2ccc(N3CCCC3C3CC3)cc12 (single isomer, unassigned) [Example 199]	Rat Hepatocytes (rHep)	Yes
CC1CCCN(c2ccc3nccc(C(=O)NCC(=O)N4CSC[C@H]4C#N)c3c2)C1=O (single isomer, unassigned) [Example 203]	Rat Hepatocytes (rHep)	No
CC1N(c2ccc3nccc(C(=O)NCC(=O)N4CSC[C@H]4C#N)c3c2)CC1(F)F (mixture of isomers) [Example 159]	Rat Hepatocytes (rHep)	Yes
N#C[C@@H]1CSCN1C(=O)CNC(=O)c1ccnc2ccc(-c3ccnn3C3CCCCO3)cc12 (mixture of isomers) [Example 176]	Rat Hepatocytes (rHep)	Yes

These entries and their values trace back to patent US20240101549A1.
